Values compiled from patent US8513232B2.

# study system: human H3 receptor (Homo sapiens, UniProt Q9Y5N1)
# Construct: expressed in transfected cells
# Sequence (Q9Y5N1 whole entry): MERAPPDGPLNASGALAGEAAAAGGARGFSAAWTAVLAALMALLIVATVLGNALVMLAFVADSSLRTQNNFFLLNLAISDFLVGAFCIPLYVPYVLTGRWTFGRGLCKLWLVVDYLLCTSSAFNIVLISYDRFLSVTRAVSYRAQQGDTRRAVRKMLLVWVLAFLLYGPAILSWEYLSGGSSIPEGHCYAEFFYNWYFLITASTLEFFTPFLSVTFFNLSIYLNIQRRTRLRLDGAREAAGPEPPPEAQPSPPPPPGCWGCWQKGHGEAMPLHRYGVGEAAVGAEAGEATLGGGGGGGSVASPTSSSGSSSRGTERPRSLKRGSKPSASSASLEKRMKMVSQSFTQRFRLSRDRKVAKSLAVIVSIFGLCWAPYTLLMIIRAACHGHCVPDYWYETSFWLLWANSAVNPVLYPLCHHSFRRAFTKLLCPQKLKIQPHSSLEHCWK
# experiment: Human H3 radioligand binding ([3H]-N-alpha-methylhistamine, SPA)
# reported conditions: human H3 binding, Table D; read-out: Human H3 Ki
pKi: −log10 of the molar value.

compound	pKi
COCCNC(=O)C1CCCN(c2ccc3c(c2)COC2(CCN(C4CCC4)CC2)O3)C1 (stereo not shown) [Example 613]	> 6.70
CN(C)C(=O)CCc1ccc2c(c1)CCC1(CCN(C3CCC3)CC1)O2 [Example 603]	> 6.70
COc1ccc(-c2ccc3c(c2)COC2(CCN(C4CC(C(=O)O)C4)CC2)O3)cn1 (stereo not shown) [Example 734]	< 6.00
O=c1ccc(-c2ccc3c(c2)COC2(CCN(C4CCC4)CC2)O3)cn1C(F)F [Example 737]	> 6.70
CCSc1c[nH]c(=O)cc1-c1ccc2c(c1)COC1(CCN(C3CCC3)CC1)O2 [Example 765]	> 6.70
COc1cc(-c2ccc3c(c2)COC2(CCN(C4CCC4)CC2)O3)ccc1C(N)=O [Example 742]	> 6.70
COc1cc(C(=O)NC2CCOCC2)ccc1-c1ccc2c(c1)COC1(CCN(C3CCC3)CC1)O2 [Example 688]	> 6.70
Cc1cnc(-c2ccc3c(c2)COC2(CCN(C4CCC4)CC2)O3)c(C)n1 [Example 731]	> 6.70
Cc1ccc2nc(C)n(-c3ccc4c(c3)COC3(CCN(C5CCC5)CC3)O4)c(=O)c2c1 [Example 792]	> 6.70
CNS(=O)(=O)c1ccc(-c2ccc3c(c2)COC2(CCN(C4CCC4)CC2)O3)cc1Cl [Example 620]	> 6.70
CC(C)S(=O)(=O)C1CCN(c2ccc3c(c2)COC2(CCN(C4CCC4)CC2)O3)CC1 [Example 656]	> 6.70
O=C(O)C1CCCN(c2ccc3c(c2)COC2(CCN(C4CCC4)CC2)O3)C1 (stereo not shown) [Example 614]	6.00 to 6.70
O=c1ccc(-c2ccc3c(c2)COC2(CCN(C4CC(CO)C4)CC2)O3)c[nH]1 (stereo not shown) [Example 721]	< 6.00

###

item smiles	melting point
COCCNC(=O)c1ccc(-c2ccc3c(c2)COC2(CCN(C4CCC4)CC2)O3)cc1OC	50 to 52 °C
CCS(=O)(=O)c1ccc(-c2ccc3c(c2)COC2(CCN(C4CCC4)CC2)O3)s1	150 to 152 °C
c1cnc(Oc2ccc3c(c2)CCC2(CCN(C4CCC4)CC2)O3)nc1	258 to 260 °C
O=C(Nc1ccc2c(c1)COC1(CCN(C3CCC3)CC1)O2)c1ccnc(F)c1	187 to 188 °C
c1cnc(Oc2ccc3c(c2)CCC2(CCN(C4CCC4)CC2)O3)cn1	256 to 258 °C
c1ccc(Nc2ccc3c(c2)COC2(CCN(C4CCC4)CC2)O3)nc1	159 to 161 °C
O=C(N[C@H]1CCOC1)c1ccc(-c2ccc3c(c2)COC2(CCN(C4CCC4)CC2)O3)cc1Cl	185 to 187 °C
CNC(=O)c1ccc(-c2cc3c(cc2Cl)OC2(CCN(C4CCC4)CC2)OC3)cc1	95 to 97 °C

###

molecule	melting point
COc1ncc(-c2ccc3c(c2)COC2(CCN(C4CCC4)CC2)O3)cc1O	61 to 63 °C
O=C(C1CC(O)(c2ccc3c(c2)CCC2(CCN(C4CCC4)CC2)O3)C1)N1CCCC1 (centres unmarked)	180 to 181 °C
CC(C)c1nnc(CCc2ccc3c(c2)COC2(CCN(C4CCC4)CC2)O3)o1	101 to 103 °C
COC1CCN(C(=O)c2ccc(-c3ccc4c(c3)CCC3(CCN(C5CCC5)CC3)O4)cn2)CC1	150 to 152 °C
CN1CCN(c2ccc3c(c2)CCC2(CCN(C4CCC4)CC2)O3)CC1	125 to 126 °C
CS(=O)(=O)c1ccc(COc2ccc3c(c2)CCC2(CCN(C4CCC4)CC2)O3)cc1	142 to 146 °C
CNC(=O)c1ccc(-c2ccc3c(c2)COC2(CCN(C4CCC4)CC2)O3)cc1Cl	276 to 277 °C
CNC(=O)c1ccc(-c2ccc3c(c2)CCOC2(CCN(C4CCC4)CC2)O3)cc1	155.6 to 157.3 °C
